# assay_method_text: Odour description on paper blotter
# details: 1% solution in EtOH on paper blotter, 24 h
readout_name: Odour description

{"query_smiles": "C=CCc1ccc(OCCC=C(C)CCC=C(C)C)c(OC)c1", "val": "spicy"}

---

# assay_method_text: Biodegradability, manometric respirometry test (OECD 301F)
# details: pass level 60% oxygen consumption of theory

{"compound": "CCCCCC[C@@H](C/C=C\\CCCCCCCC(=O)OC)Oc1ccc(CCC(C)=O)cc1", "Biodegradation in % (%)": 88}
{"compound": "CCCCCC[C@@H](C/C=C\\CCCCCCCC(=O)OC)Oc1ccc(C=O)cc1OCC", "Biodegradation in % (%)": 90}
{"compound": "CC/C=C/CC(CCCCCCCCC)Oc1ccc(C=O)cc1OCC (stereo not shown)", "Biodegradation in % (%)": 70}
{"compound": "CC/C=C\\CC(CCCCC)Oc1ccc(C=O)cc1OCC (stereo not shown)", "Biodegradation in % (%)": 86}

---

# assay_method_text: Washtest with liquid detergent and sensory evaluation of fabric by expert panel
# details: Table 3; dry fabric 4 days; scale 0 to 5
Please mark 1 if the recorded odour intensity, 4 days is equal to or greater than 3, and 0 if it falls below.

{"compound": "CC/C=C\\CC(CCCCCCCCC)Oc1ccc(C=O)cc1OCC (stereo not drawn)", "group": 0}
{"compound": "CC/C=C\\C/C=C\\CCOc1ccc(C=O)cc1OCC", "group": 1}
{"compound": "C=CCC(CC/C=C\\CC)Oc1cc(C)c(C(=O)OC)c(O)c1C (stereo not drawn)", "group": 0}
{"compound": "C=CCC(CC/C=C\\CC)Oc1ccc(C=O)cc1OCC (stereo not drawn)", "group": 1}
{"compound": "CCCCCC(C)=CCCOc1ccc(C=O)cc1OCC", "group": 1}
{"compound": "C=CCC(CCCCCCCCCC)Oc1ccc(C=O)cc1OC (stereo not drawn)", "group": 1}
{"compound": "CC(=O)CCc1ccc(OCCC=C(C)CCc2ccccc2)cc1", "group": 1}
{"compound": "C=CCc1ccc(OC(CC=C)CCCCCCCCC)c(OC)c1 (stereo not drawn)", "group": 0}
